Source listed as patent US10065948B2.

Test system: cellular histone deacetylase enzymatic activity in Jurkat E6-1 cells
assay details: Inhibition of cellular HDAC activity, Boc-Lys(Tfa)-AMC substrate (Cell Lys-TFA)
Assay type: cell-based
assay context: Homo sapiens, Jurkat E6.1, Lys-TFA substrate
measure: pIC50
# reply with the number alone; pIC50 is -log10 of concentration in mol/L

Requested read-out: pIC50. Entry: Cc1c(F)cccc1[C@]1(C(=O)NO)Cc2cnn(-c3ccc(Cl)cc3)c2C1
6.99

// same read-out, input: Cc1c(F)cccc1[C@]1(C(=O)NO)Cc2nc(-c3ccnn3C)sc2C1
6.92

// same read-out, input: Cc1cnccc1-n1cc2c(n1)C[C@](C(=O)NO)(c1cccc(F)c1C)C2
6.94

// same read-out, input: Cc1ccccc1-n1ncc2c1C[C@](C(=O)NO)(c1cccc(F)c1C)C2
7.85

// same read-out, input: Cc1cccc(-n2ncc3c2C[C@](C(=O)NO)(c2cccc(F)c2C)C3)c1
7.19

// same read-out, input: Cc1c(F)cccc1C1(C(=O)NO)CCc2nc(C3CC3)sc2C1 (stereo not drawn)
6.49

// same read-out, input: Cc1c(F)cccc1C1(C(=O)NO)CCc2ncsc2C1 (stereo not drawn)
5.82

// same read-out, input: Cc1c(F)cccc1[C@]1(C(=O)NO)CCc2c1cnn2C1CC1
6.14

// same read-out, input: Cc1c(F)cccc1[C@]1(C(=O)NO)Cc2cnn(-c3ccccc3)c2C1
7.23

// same read-out, input: O=C(NO)[C@]1(c2ccccc2)CCc2ccccc21
4.34

// same read-out, input: Cc1c(F)cccc1[C@@]1(C(=O)NO)Cc2snc(-c3ccccc3)c2C1
5.25

// same read-out, input: Cc1c(F)cccc1[C@]1(C(=O)NO)Cc2cnn(-c3cccc(Cl)c3)c2C1
7.14

// same read-out, input: Cc1c(F)cccc1C1(C(=O)NO)CCc2nc(NS(=O)(=O)c3ccccc3)sc2C1 (stereo not drawn)
5.80

====

pIC50, Histone Deacetylase 4 (HDAC4) catalytic domain (Homo sapiens (Human), UniProt P56524), per-entry values.
# reply with the number alone; pIC50 is -log10 of concentration in mol/L

Example results:
molecule | tested system | readout number
Cc1c(F)cccc1[C@@]1(C(=O)NO)Cc2cnn(-c3ccccc3)c2C1 | Histone Deacetylase 4 (HDAC4) catalytic domain (Homo sapiens (Human), UniProt P56524) | 6.00
Cc1c(F)cccc1[C@]1(C(=O)NO)CCc2c1cnn2C1CC1 | Histone Deacetylase 4 (HDAC4) catalytic domain (Homo sapiens (Human), UniProt P56524) | 7.00
Cc1c(F)cccc1[C@]1(C(=O)NO)Cc2cnn(-c3ccccc3)c2C1 | Histone Deacetylase 4 (HDAC4) catalytic domain (Homo sapiens (Human), UniProt P56524) | 7.55
Cc1cc(F)ccc1-c1nc2c(s1)CC(C(=O)NO)(c1cccc(F)c1C)C2 (single isomer, unassigned) | Histone Deacetylase 4 (HDAC4) catalytic domain (Homo sapiens (Human), UniProt P56524) | 6.57

Requested read-out: pIC50. Entry: Cc1c(F)cccc1[C@]1(C(=O)NO)Cc2cn(-c3ccc(OC(F)F)cc3)nc2C1
6.83

// same read-out, input: Cc1c(F)cccc1[C@]1(C(=O)NO)Cc2cnn(-c3c(F)cccc3Cl)c2C1
7.82

// same read-out, input: Cc1c(F)cccc1[C@]1(C(=O)NO)Cc2nn(C)c(-c3ccc(F)cc3)c2C1
7.28

// same read-out, input: Cc1cc(-c2nc3c(s2)C[C@@](C(=O)NO)(c2cccc(F)c2C)C3)n(C)n1
6.91
